Target: purified HLA DRB1*0301 (human)
Experiment: competition with 125I-labelled peptide for purified HLA
attributeMeasured: IC50 (nM)
All answers are understood in nM, so give the number only.

### Prompt Record request: IC50 value, item YIQMCTELKLSDYEG (modifications not checked) [Flu.NP.43 peptide …]
### Response 368
